Data origin, for the record: PubChem BioAssay (NCATS)

target: Ubiquitin carboxyl-terminal hydrolase 1 (Homo sapiens); test: Inhibitors of USP1/UAF1: Pilot qHTS (AID 504865); settings: purified USP1/UAF1, Ub-rhodamine cleavage fluorescence; series mostly up to 114 µM; further: nearly all actives have a fitted effect of over 35% in size
Results filed as inconclusive are left out. Active and inactive are the calls of the source. The call rests on the fitted dose curve; in most records, active means well fitted inhibition curve with a large enough effect; inconclusive means small, poorly fitted or top-dose-only effect; inactive means flat fitted curve, though single readings scatter.
Parameter call: string, one of active, inactive

O=C1C(CCS(=O)c2ccccc2)C(=O)N(c2ccccc2)N1c1ccccc1 (configuration not stated) : inactive
Cl/C(=C\n1cncn1)c1ccc(Cl)cc1Cl : inactive
C/C=C/C=N/NC(=O)c1ccncc1 : inactive
CC(=O)O[C@]1(C(C)=O)CC[C@H]2[C@@H]3C=C(Cl)C4=CC(=O)CC[C@]4(C)[C@H]3CC[C@@]21C : inactive

Q: # outcome recorded in this test, key = `CCCCc1cc2ccccc2c(OCCN(C)C)n1`
Result: inactive

Q: For CC[N+](C)(CC)CCOC(=O)C(O)(c1ccccc1)C1CCCCC1 (configuration not stated) , which call appears in the assay record?
Result: inactive

Q: Dear all, I need the recorded test outcome for `Cc1cccc(C)c1NC(=O)CN1CCCC1` , thank you.
Result: inactive

Q: What is the recorded call for this molecule in the test? `CCc1oc2ccccc2c1C(=O)c1cc(Br)c(O)c(Br)c1`
Result: active

Q: I would be grateful if you could indicate the recorded call for `COc1ccc2c(c1)c1c3n2CCN(C)C3=NCC1` .
Result: inactive

---

system: SC27B; assay: qHTS profiling for inhibitors of Plasmodium falciparum proliferation (AID 504749); further: nearly all actives have a fitted effect of over 60% in size; further: potency means the concentration at half of the fitted maximal effect; details: P. falciparum in erythrocytes, SYBR Green DNA, 72 h; series mostly up to 28.7 µM
Inconclusive results are not listed. The source made the active and inactive calls. The call rests on the fitted dose curve; in most records, active means well fitted inhibition curve with a large enough effect; inconclusive means small, poorly fitted or top-dose-only effect; inactive means flat fitted curve, though single readings scatter.
recorded-metric: Potency

C[N+]1(CC2COC(c3ccccc3)(C3CCCCC3)O2)CCCCC1 (stereo not drawn) : 7.08 µM (active)
OCc1ccccn1 : inactive
NC(=O)C1(N2CCCCC2)CCN(CCCC(=O)c2ccc(F)cc2)CC1 : inactive
COc1ccc2c(c1)c1c3n2CCN(C)C3=NCC1 : inactive
CCc1oc2ccccc2c1C(=O)c1cc(I)c(O)c(I)c1 : inactive
Cc1cccc(C)c1NC(=O)c1ccccc1C(=O)O : inactive

Q: State, for SC27B, measured Potency of the molecule listed here: `CC(=O)O[C@]1(C(C)=O)CC[C@H]2[C@@H]3C=C(Cl)C4=CC(=O)CC[C@]4(C)[C@H]3CC[C@@]21C`
Result: 8.91 µM (active)

Q: Enter recorded Potency with SC27B for `Nc1ccc(S(=O)(=O)NCc2ccccc2)cc1` here.
Result: inactive

Q: Lab note: SC27B assay, enter Potency for `O=C(O)C1(C(=O)O)CCC1.[NH2-].[NH2-].[Pt+2]` here
Result: inactive

Q: Please respond with reported Potency (system SC27B) for `CN1CCN(CCC(=O)N2c3ccccc3Sc3ccc(C(F)(F)F)cc32)CC1` .
Result: inactive

Q: Report its Potency with SC27B as the test system: `CCCCCCCC/C=C\CCCCCCCCN`
Result: inactive

Q: Provide SC27B Potency reading for `O[C@@H](c1cc(C(F)(F)F)nc2c(C(F)(F)F)cccc12)[C@H]1CCCCN1` .
Result: 0.0251 µM (active)

Q: Enter Potency (test system SC27B) for `CC(=O)OCC(=O)[C@H]1CC[C@H]2[C@@H]3CCC4=CC(=O)CC[C@]4(C)[C@H]3CC[C@]12C`
Result: inactive

Q: Given Cc1cc2c(OCC(CNC(C)(C)C)OC(=O)c3ccccc3)cccc2[nH]1 (stereo not drawn) , report its Potency on SC27B.
Result: inactive

Q: Report measured Potency on SC27B; entry: `COc1cc(C)nc(-n2nc(C)cc2OC)n1`
Result: inactive

Q: # assay system SC27B: give Potency of `COc1ccc(CCN(C)CCCN2CCc3cc(OC)c(OC)cc3CC2=O)cc1OC`
Result: inactive

Q: Identify measured Potency obtained with SC27B for `CCOc1ccccc1C(N)=O` .
Result: inactive

Q: Tell me Potency of CC[N+](C)(CC)CCOC(=O)C(O)(c1ccccc1)C1CCCCC1 (stereo not drawn) when tested on SC27B.
Result: inactive
